Tested on: Staphylococcus aureus ATCC 13709 MSSA
Response field label takes 1 when MIC is strictly below 3 µg/mL and -1 in all other cases.

Study these solved cases before continuing.
Req: # strict comparison: is reported MIC < 3 µg/mL? input = CC(C)CCC1=C(O)C(CCC(C)C)(CCC(C)C)C(=O)C(C(=O)CCc2ccccc2)=C1O [Compound 15]
Resp: 1

Req: # strict comparison: is reported MIC < 3 µg/mL? input = CC(C)CCC1=C(O)C(CCC(C)C)(CCC(C)C)C(=O)C(C(=O)C(C)Cc2ccccc2)=C1O (stereo not drawn) [Compound 20]
Resp: 1

Req: # strict comparison: is reported MIC < 3 µg/mL? input = CCC1=C(O)C(CC)(CC)C(=O)C(C(=O)CCc2ccccc2)=C1O [Compound 16]
Resp: -1

Req: # strict comparison: is reported MIC < 3 µg/mL? input = CCCC1=C(O)C(CCC)(CCC)C(=O)C(C(=O)CCc2ccccc2)=C1O [Compound 17]
Resp: 1

Switching to the query record.
Req: # strict comparison: is reported MIC < 3 µg/mL? input = CCCCC1=C(O)C(CCCC)(CCCC)C(=O)C(C(=O)CCc2ccccc2)=C1O [Compound 18]
Resp: 1
